# composite z-score values compiled below
Target: Concanavalin-A (Canavalia ensiformis) (UniProt P02866)
Sequence (P02866 whole entry, looked up): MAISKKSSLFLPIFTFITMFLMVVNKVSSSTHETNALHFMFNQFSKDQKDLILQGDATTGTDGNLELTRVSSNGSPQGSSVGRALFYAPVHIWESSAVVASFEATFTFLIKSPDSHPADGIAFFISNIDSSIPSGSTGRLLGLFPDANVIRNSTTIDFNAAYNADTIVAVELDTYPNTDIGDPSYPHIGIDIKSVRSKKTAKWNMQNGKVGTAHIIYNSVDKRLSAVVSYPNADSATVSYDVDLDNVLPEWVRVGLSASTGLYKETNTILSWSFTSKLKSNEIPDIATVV
Experiment: compounds binding concanavalin A lectin – biochemical, small-molecule microarray, Alexa647 label, 635 nm, artefact control for SMM control protein annotation, primary screen (AID 1127);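 also: z combines 667 nm emission intensity with signal-to-noise across three replicate slides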
Settings: ConA-A647 binding fluorescence, higher = more signal
MEASURED_ATTRIBUTE: composite z-score

>>> endpoint_value("CN(C)C(=O)[C@@]1(Cc2ccccc2CN=[N+]=[N-])COC(c2ccc(OCCCO)cc2)=N1")
1.04
>>> endpoint_value("C=C(COC)C(=O)CC[C@@H](OC(C)=O)c1ccccc1OCCO")
-0.0386
>>> endpoint_value("CCOC(=O)C[C@H]1[C@H](OC(=O)Cc2ccc3c(c2)OCO3)[C@@H](NC(=O)c2ccc3ccccc3n2)c2cc(OCCCO)ccc2N1C(=O)Cc1ccc(OC)cc1")
0.774
>>> endpoint_value("CC(C)=CCCC(C)=CC(O)C1C=CC2C(=O)NC(=O)C2N1Nc1ccccn1 (configuration not stated)")
0.932
>>> endpoint_value("NC(=O)NCC#Cc1ccc2c(c1)[C@]1(C(=O)N2)[C@H](c2ccc(OCCO)cc2)N2[C@H](c3ccccc3)[C@H](c3ccccc3)OC(=O)[C@H]2[C@@H]1C(=O)O")
1.04
>>> endpoint_value("O=C1[C@H]2C=C(I)[C@H](C[C@@H]2c2ccccc2)[C@@]12CO2")
-0.267
>>> endpoint_value("C=CCN1C(=O)[C@@]2(O[C@@H](CCn3cc([C@H](O)c4ccccc4)nn3)[C@H]([Si](C)(C)c3ccc(OC)cc3)[C@H]2C)c2cc(N3C(=O)c4cccc5cccc3c45)ccc21")
0.341

###

The following molecules are shown together with reported z-score values.
Assay: plasmodial surface anion channel blockers, osmotic lysis – cell-based, P. falciparum Indochina, OD700, 18 h, primary screen (AID 1157)
Details: P. falciparum Indochina infected erythrocytes, osmotic lysis OD700, 18 h; higher = more signal, called active from +8 up or from −8 down
MEASURED_ATTRIBUTE: z-score

>>> endpoint_value("COCCOC(=O)N1C(=O)[C@@]2(c3cc(C#CC4(O)CCCCCC4)ccc31)[C@H](c1ccc(O)cc1)N1[C@H](c3ccccc3)[C@H](c3ccccc3)OC(=O)[C@H]1[C@@H]2C(=O)N1CCCCCCC1")
0.166
>>> endpoint_value("O=C(NCc1ccccc1)[C@@H]1c2ccccc2C(=O)N(Cc2cc(C(F)(F)F)cc(C(F)(F)F)c2)[C@H]1c1ccc(CO)cc1")
0.352
>>> endpoint_value("CCOc1cc(C(O)C2C=CC3C(=O)N(c4ccccc4)C(=O)C3N2Nc2ccccc2F)ccc1O (centres undefined)")
0.926
>>> endpoint_value("COc1ccc([Si](C)(C)[C@H]2[C@H](CC(=O)N3CCC[C@H]3CO)O[C@@]3(C(=O)N(Cc4ccc(N5CCCCC5=O)cc4)c4ccccc43)[C@@H]2C)cc1")
1.02

###

Biological target: NADPH oxidase 5 (Homo sapiens)
Assay: compounds shifting NOX5 Amplex Red fluorescence – cell-based, HEK293-NOX5, NOX inhibitor project, primary screen (AID 1161)
Settings: HEK293-NOX5, ionomycin, 45 min, higher = more signal
Met means recorded z-score is -1 or above; Not met means it is below -1.

>>> label_class("O=C1O[C@H](c2ccccc2)[C@H](c2ccccc2)N2[C@H]1[C@@H](C(=O)N1CCN(c3ncccn3)CC1)[C@]1(C(=O)Nc3ccc(C#CCCO)cc31)[C@H]2c1ccc(O)cc1")
"Met"
>>> label_class("COc1ccc(C(=O)Nc2cccc(CN3C(=O)[C@]4(O[C@H](CC(=O)N5Cc6ccccc6C[C@H]5CO)[C@@H]([Si](C)(C)c5ccc(OC)cc5)[C@@H]4C)c4ccccc43)c2)cc1")
"Met"
>>> label_class("C[C@]1(C(=O)O)c2ccccc2C(=O)N(Cc2cc(F)cc(C(F)(F)F)c2)[C@H]1c1ccc(CO)cc1")
"Not met"
>>> label_class("O=C1O[C@H](Cc2ccccc2)[C@@H]2[C@H]3C=CCCC=C3CN2[C@H]1Cc1ccc(O)cc1")
"Not met"
>>> label_class("O=C1C2C=CC(C(O)C3CCCCC3)N(n3cnnc3)C2C(=O)N1Cc1ccccc1 (stereo unspecified)")
"Not met"
>>> label_class("COCCOC(=O)N1C(=O)[C@@]2(c3ccccc31)[C@H](C(=O)N1CCN(c3ncccn3)CC1)[C@H]1C(=O)O[C@H](c3ccccc3)[C@H](c3ccccc3)N1[C@@H]2c1ccccc1OCCO")
"Met"

###

Measured z-score values are reported for all entries that follow.
Assay: viability profiling in MM1S myeloma cells – cell-based, resazurin fluorescence, basal, 24 h, PK04 Diversity Set, profiling panel (AID 1174);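 also: MM1S multiple myeloma cell line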
Conditions: higher = more signal, called active from +8 up or from −8 down
MEASURED_ATTRIBUTE: z-score

>>> endpoint_value("C=CCNC(=O)[C@H]1[C@@H]2C(=O)O[C@@H](c3ccccc3)[C@@H](c3ccccc3)N2[C@@H](c2ccc(OCCO)cc2)[C@]12C(=O)Nc1ccc(C#CC3(O)CCCCCC3)cc12")
-0.823
>>> endpoint_value("COc1ccc(CCNC(=O)[C@@H]2c3ccccc3C(=O)N(Cc3ccccc3OC)[C@H]2c2ccc(CO)cc2)cc1")
-0.0684
>>> endpoint_value("CCOc1cc(C(O)C2C=CC3C(=O)N(c4ccccc4)C(=O)C3N2Nc2ccccc2F)ccc1O (centres undefined)")
-0.454
>>> endpoint_value("COCC(=C=CC[C@H](O)c1ccccc1OCCO)C[C@H](O)COCc1ccccc1")
0.442

###

Test system: XIP peptide (Xip251-270)
Assay: compounds binding XIP fragment 251-270 – biochemical, small-molecule microarray, fluorescence 635/667 nm, 0.5 µg/mL protein, primary screen (AID 1183)
Details: fluorescence 635 nm, higher = more signal
MEASURED_ATTRIBUTE: composite z-score

>>> endpoint_value("COC(=O)C[C@H]1O[C@@]2(C[C@@H]1[Si](C)(C)C)C(=O)N(C)c1ccccc12")
-0.186
>>> endpoint_value("O=C1C=C(c2ccccc2)C(=O)C2=C1CC([C@H]1Oc3ccccc3S(=O)(=O)N3CCC[C@@H]13)=CC2")
-0.0733
>>> endpoint_value("CO[C@H]1O[C@H](CO)[C@@H](OC(=O)Nc2ccccc2-c2ccccc2)[C@H](OC(=O)Nc2ccccc2)[C@H]1OC(=O)Nc1ccccc1")
0.915
>>> endpoint_value("CN1C(=O)[C@@H]2[C@@H](CC(COc3ccccc3)=C3[C@@H](CCc4ccccc4)OB(O)C[C@@H]32)C1=O")
0.774
>>> endpoint_value("C=CCOC(=O)[C@@H]1[C@H]2C(=O)O[C@H](c3ccccc3)[C@H](c3ccccc3)N2[C@H](c2ccc(OCCOC(=O)[C@H]3C[C@H]4C(=O)N5CCC[C@H]5C(=O)N4[C@H]3c3cccc(OCCO)c3)cc2)[C@@]12C(=O)Nc1ccc(I)cc12")
0.875
>>> endpoint_value("COCCOC(=O)N1C(=O)[C@@]2(c3cc(C#CCCO)ccc31)[C@H](C(N)=O)[C@H]1C(=O)O[C@H](c3ccccc3)[C@H](c3ccccc3)N1[C@@H]2c1ccccc1OCCO")
0.832
>>> endpoint_value("COC(=O)[C@@]1(Cc2ccccc2)[C@H]2c3cc(C(=O)N(C)C)n(Cc4ccc(C(F)(F)F)nc4)c3C[C@H]2CN1C(=O)c1ccccc1")
0.337
>>> endpoint_value("C=C(COC)C(=O)CC[C@H](OC(=O)c1cccnc1)c1ccc(OCCO)cc1")
0.447
>>> endpoint_value("O=C1O[C@@H](c2ccccc2)[C@@H](c2ccccc2)N2[C@@H](c3ccc(OCCO)cc3)[C@]3(C(=O)Nc4ccc(C#CC5(O)CCCCCC5)cc43)[C@@H](C(=O)O)[C@H]12")
0.688
>>> endpoint_value("CC(C)NC(=O)[C@@]1(C)c2ccccc2C(=O)N(Cc2ccccc2)[C@H]1c1ccc(CO)cc1")
0.875
>>> endpoint_value("[N-]=[N+]=Nc1ccccc1C[C@@]1(C(=O)NCc2ccccc2)N=C(c2ccc(OCCCO)cc2)O[C@@H]1c1ccccc1N=[N+]=[N-]")
0.729
>>> endpoint_value("COc1ccc([Si](C)(C)[C@H]2[C@H](CC(=O)N3Cc4ccccc4C[C@H]3CO)O[C@@]3(C(=O)N(c4ccccc4)c4ccccc43)[C@@H]2C)cc1")
0.765
>>> endpoint_value("CC(=O)c1ccc(C(O)C2C=CC3C(=O)N(c4ccccc4)C(=O)C3N2Nc2ccc(C(C)C)cc2)cc1 (configuration not stated)")
0.525
>>> endpoint_value("C=CCNC(=O)[C@H]1[C@@H]2C(=O)O[C@@H](c3ccccc3)[C@@H](c3ccccc3)N2[C@@H](c2ccccc2OCCO)[C@]12C(=O)N(C(=O)OCCOC)c1ccc(C#Cc3ccc(OC)cc3)cc12")
0.807
>>> endpoint_value("O=C1C[C@]2(c3ccc([N+](=O)[O-])cc3)C(=O)N(C3CC3)c3cc(CO)ccc3[C@H]2N1C1CCCCC1")
0.205
>>> endpoint_value("Cc1ccc(S[C@]2(C(=O)NCc3ccccc3)CC(=O)N(Cc3ccccc3C(F)(F)F)[C@@H]2c2ccc(CO)cc2)cc1")
0.599
>>> endpoint_value("O=C1O[C@@H](c2ccccc2)[C@@H](c2ccccc2)N2[C@@H](c3ccc(OCCO)cc3)[C@]3(C(=O)Nc4ccc(C#CC5(O)CCCCCC5)cc43)[C@@H](C(=O)Nc3nc4ccccc4s3)[C@H]12")
0.667
>>> endpoint_value("COCCCNC(=O)[C@@]1(Sc2ccc(C)cc2)CC(=O)N(Cc2ccccc2C(F)(F)F)[C@@H]1c1ccc(CO)cc1I")
-0.251
>>> endpoint_value("CC(C)NC(=O)[C@@H]1c2ccccc2C(=O)N(Cc2ccccc2C(F)(F)F)[C@H]1c1ccc(CO)cc1")
0.78
>>> endpoint_value("CCCC#C[Si](O[C@H](CC)c1cn(Cc2ccccc2)nn1)(C(C)C)C(C)C")
0.598
>>> endpoint_value("[N-]=[N+]=NCc1ccccc1[C@@H]1OC(c2ccc(OCCCO)cc2)=N[C@]1(Cc1ccccc1N=[N+]=[N-])C(=O)O")
0.722
>>> endpoint_value("C=C(CCCC)C(=O)CC[C@@H](OC(=O)c1ccccc1-c1ccccc1C(=O)O)c1ccccc1OCCO")
0.145
>>> endpoint_value("O=C1O[C@H](c2ccccc2)[C@H](c2ccccc2)N2[C@H]1[C@@H](C(=O)N1CCN(c3ncccn3)CC1)[C@]1(C(=O)Nc3ccc(C#CCCO)cc31)[C@H]2c1ccc(O)cc1")
0.726
>>> endpoint_value("CC=CC(O)C1C=CC2C(=O)NC(=O)C2N1Nc1ccc(Cl)cc1Cl (configuration not stated)")
-0.186
>>> endpoint_value("Cc1ccc(F)cc1S(=O)(=O)N[C@H]1CCN(Cc2ccc(OC(C)C)cc2)C1")
0.338
>>> endpoint_value("COCCOC(=O)N1C(=O)[C@@]2(c3cc(C#CCC(C(=O)OC)C(=O)OC)ccc31)[C@H](C(=O)Nc1nc3ccccc3s1)[C@H]1C(=O)O[C@H](c3ccccc3)[C@H](c3ccccc3)N1[C@@H]2c1ccc(O)cc1")
0.599
>>> endpoint_value("COC(=O)[C@@]1(Cc2ccc(F)cc2)[C@H]2c3cc(C(=O)N(C)C)n(CCc4ccc(O)c(O)c4)c3C[C@H]2CN1C(=O)c1ccccc1")
0.162
